Value source: patent US20220315554A1

Target: FAP-expressing human WI-38 fibroblasts (Homo sapiens, UniProt Q12884)
Construct: FAP-expressing human WI-38 fibroblasts (ECACC) were cultured in EMEM; host or cells: WI-38 human fibroblasts
Assay: Competitive FACS binding assay
Conditions: pIC50 Category (FACS), competition with 3 nM Cy5-labeled compound, 4° C., 1 hour
Procedure: Cells were analyzed in an Attune NxT flow cytometer. […]
pIC50: −log10 of the molar value.
Answer each item with its documented pIC50.

Below, each entry is followed by its recorded pIC50 result.
Asked: Assign pIC50 to the following record: "CCCCCC(=O)N[C@H]1CSCc2cc(cc(CN3CCN(C(=O)COCCOCCNC(=O)C(CNCCN)CNCCN)CC3)c2)CSC[C@@H](C(=O)O)NC(=O)[C@H](Cc2ccccc2)NC(=O)[C@H](CCC(N)=O)NC(=O)[C@H]([C@@H](C)O)NC(=O)[C@@H]2CCCN2C(=O)[C@@H]2CCCN2C1=O"
Given back: 7.10 to 8.00

Asked: Entry "CCCCCC(=O)N[C@H]1CSCc2cc(CSCCNC(=O)CC[C@@H]3C(=O)[O][Ga]([O]C(=O)CN(C)CC)[O]C(=O)CN(C)CCN3CC)cc(c2)CSC[C@@H](C(=O)O)NC(=O)[C@H](Cc2ccccc2)NC(=O)[C@H](CCC(N)=O)NC(=O)[C@H]([C@@H](C)O)NC(=O)[C@@H]2CCCN2C(=O)[C@@H]2CCCN2C1=O" needs its pIC50 filled in; supply it.
Given back: > 8.00

Next:
Asked: Give reported pIC50 value for "CCCCCC(=O)N[C@H]1CSCc2cc(CSCCNC(=O)CN3CCN(CC(=O)O)CCN(CC(=O)O)CCN(CC(=O)O)CC3)cc(c2)CSC[C@H](C(=O)O)NC(=O)[C@H](Cc2ccccc2)NC(=O)[C@H](CCC(N)=O)NC(=O)[C@H]([C@@H](C)O)NC(=O)[C@@H]2CCCN2C(=O)[C@@H]2CCCN2C1=O"
Given back: 7.10 to 8.00

====

Consider the following compounds; for each one, report its IC50.
Target: FAP-expressing human WI-38 fibroblasts (Homo sapiens, UniProt Q12884)
Construct: FAP-expressing human WI-38 fibroblasts (ECACC) were cultured in EMEM; host or cells: WI-38 human fibroblasts
Sequence (Q12884 1-760): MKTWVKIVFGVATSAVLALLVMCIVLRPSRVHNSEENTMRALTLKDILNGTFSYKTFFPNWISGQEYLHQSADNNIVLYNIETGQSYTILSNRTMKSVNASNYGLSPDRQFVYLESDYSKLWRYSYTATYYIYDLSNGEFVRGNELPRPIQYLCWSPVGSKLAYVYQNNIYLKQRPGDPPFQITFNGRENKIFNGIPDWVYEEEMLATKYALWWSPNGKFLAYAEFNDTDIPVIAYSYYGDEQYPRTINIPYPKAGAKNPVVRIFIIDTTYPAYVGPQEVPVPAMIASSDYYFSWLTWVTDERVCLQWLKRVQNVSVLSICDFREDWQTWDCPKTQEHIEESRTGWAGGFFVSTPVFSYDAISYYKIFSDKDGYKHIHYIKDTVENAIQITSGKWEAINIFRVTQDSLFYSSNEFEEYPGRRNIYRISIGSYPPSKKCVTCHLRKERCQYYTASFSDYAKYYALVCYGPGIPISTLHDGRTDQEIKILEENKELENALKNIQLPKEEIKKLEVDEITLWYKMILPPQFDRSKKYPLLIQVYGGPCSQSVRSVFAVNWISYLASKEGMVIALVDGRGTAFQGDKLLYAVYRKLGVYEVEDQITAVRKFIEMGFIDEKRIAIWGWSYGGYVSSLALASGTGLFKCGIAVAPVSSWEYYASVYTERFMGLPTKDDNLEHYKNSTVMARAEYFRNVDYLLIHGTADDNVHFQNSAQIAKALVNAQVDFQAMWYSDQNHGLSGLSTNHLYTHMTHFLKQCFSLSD
Assay: Competitive FACS binding assay
Conditions: pIC50 Category (FACS), competition with 3 nM Cy5-labeled compound, WI-38 fibroblasts, 4° C., 1 hour
Numbered stars: 1 amine (or outer) side, 2 acyl side, 3 side chain; on linkers, the order of the positions; unused ones are H or OH. Bridge positions count the residues as written; N and C are the ends. Peptide text beside a SMILES is read from it. * marks the point of attachment. X8 = O=C1CN2CCN3CCN(CC(=O)N4CCN(Cc5cc(C[*:1])cc(C[*:2])c5)CC4)CCN(CC2)CC(=O)[O][Ga]([O]1)[O]C(=O)C3; NH(CH2)3NH(O2Oc(DOTA)) = O=C(O)CN1CCN(CC(=O)O)CCN(CC(=O)NCCOCCOCC(=O)NCCCN*)CCN(CC(=O)O)CC1; Pyridine(2,6-diCH2) = c1cc(C[*:1])nc(C[*:2])c1; mXylylene = c1cc(C[*:1])cc(C[*:2])c1; Hexanoyl = CCCCCC(=O)*

Example compounds with recorded IC50:
Asked: For FAP-expressing human WI-38 fibroblasts (Homo sapiens, UniProt Q12884), give IC50 of the listed compound: CCCCCC(=O)N[C@H]1CSCc2cccc(c2)CSC[C@@H](C(N)=O)NC(=O)[C@H](Cc2ccccc2)NC(=O)[C@H](CCC(=O)O)NC(=O)[C@H]([C@@H](C)O)NC(=O)[C@@H]2CCCN2C(=O)[C@H](C)NC1=O [3BP-3346] (Hexanoyl-CAPTEFC-NH2; linker 1-7 via mXylylene)
Given back: > 1000 nM

Asked: Param request: IC50 | system FAP-expressing human WI-38 fibroblasts (Homo sapiens, UniProt Q12884) | item CCCCCC(=O)N[C@H]1CSCc2cccc(c2)CSC[C@@H](C(=O)N[C@@H](CC(=O)O)C(N)=O)NC(=O)[C@H](Cc2ccccc2)NC(=O)[C@H](CCC(=O)NCCCNC(=O)COCCOCCNC(=O)CN2CCN(CC(=O)O)CCN(CC(=O)O)CCN(CC(=O)O)CC2)NC(=O)[C@H]([C@@H](C)O)NC(=O)[C@@H]2CCCN2C(=O)[C@@H]2CCCN2C1=O [3BP-3473] (Hexanoyl-CPPTE(NH(CH2)3NH(O2Oc(DOTA)))FCD-NH2; linker 1-7 via mXylylene)
Given back: 100 to 794 nM

Asked: Recall the reported IC50 of CCCCCC(=O)N[C@H]1CSCc2cc(cc(CN3CCN(C(=O)CN4CCN5CCN6CCN(CC4)CC(=O)[O][Ga]([O]C(=O)C6)[O]C(=O)C5)CC3)c2)CSC[C@@H](C(=O)N[C@@H](CC(=O)O)C(N)=O)NC(=O)[C@H](Cc2ccccc2)NC(=O)[C@H](CCC(N)=O)NC(=O)[C@H]([C@@H](C)O)NC(=O)[C@@H]2CCCN2C(=O)[C@@H]2CCCN2C1=O [3BP-3592] (Hexanoyl-CPPTQFCD-NH2; linker 1-7 via X8) when tested on FAP-expressing human WI-38 fibroblasts (Homo sapiens, UniProt Q12884).
Given back: < 10 nM

Asked: Quote FAP-expressing human WI-38 fibroblasts (Homo sapiens, UniProt Q12884) IC50 for entry CCCCCC(=O)N[C@H]1CSCc2cccc(n2)CSC[C@@H](C(=O)N[C@@H](CC(=O)O)C(N)=O)NC(=O)[C@H](Cc2ccccc2)NC(=O)[C@H](CCC(N)=O)NC(=O)[C@H]([C@@H](C)O)NC(=O)[C@@H]2CCCN2C(=O)[C@@H]2CCCN2C1=O [3BP-3518] (Hexanoyl-CPPTQFCD-NH2; linker 1-7 via Pyridine(2,6-diCH2)) .
Given back: < 10 nM

Asked: Recall the reported IC50 of CCCCCC(=O)N[C@H]1CSCc2cc(CSCCNC(=O)CN3CCN(CC(=O)O)CCN(CC(=O)O)CCN(CC(=O)O)CC3)cc(c2)CSC[C@@H](C(=O)NCC(=O)O)NC(=O)[C@H](Cc2ccccc2)NC(=O)[C@H](CCC(N)=O)NC(=O)[C@H]([C@@H](C)O)NC(=O)[C@@H]2CCCN2C(=O)[C@@H]2CCCN2C1 [3BP-3656] when tested on FAP-expressing human WI-38 fibroblasts (Homo sapiens, UniProt Q12884).
Given back: < 10 nM

Moving on to another compound below.
Asked: # assay system FAP-expressing human WI-38 fibroblasts (Homo sapiens, UniProt Q12884): give IC50 of CCCCCC(=O)N[C@H]1CSCc2cc(CSCCNC(=O)CN3CCN4CCN5CCN(CC3)CC(=O)[O][Lu]([O]C(=O)C4)[O]C(=O)C5)cc(c2)CSC[C@@H](C(=O)O)NC(=O)[C@H](Cc2ccccc2)NC(=O)[C@H](CCC(N)=O)NC(=O)[C@H]([C@@H](C)O)NC(=O)[C@@H]2CCCN2C(=O)[C@@H]2CCCN2C1 [3BP-3624]
Given back: < 10 nM
